Molecular target: MMP-14 (Homo sapiens)
Construct: The catalytic domain enzyme was expressed in E. coli inclusion bodies, solubilized in urea; made in house
Assay: In vitro MMP inhibition, Ki determination (fluorogenic substrate II)
Type: biochemical
Details: value not in parenthesis; read-out: MMP-14 Ki
Protocol: Several hydroxamic acids and salts thereof were analyzed in in vitro assays to determine their ability to inhibit the MMP cleavage of peptide substrates. […] and IC50 constants were calculated from the assayed hydroxamic acid-MMP interactions. […] The assays from which the Ki determinations were made were performed as follows. […] In the absence of MMP inhibitory activity, substrate II was cleaved at the Gly-Leu bond resulting in an increase of relative fluorescence. […]
MEASUREMENT_NAME: Ki

Sure, the documented Ki for CCCCOc1ccc(N2CCN(S(=O)(=O)C3(C(=O)NO)CCN(C(=O)OCC(C)(C)C)CC3)CC2)cc1 [Example 97] is > 10 µM

Documented Ki of CCCCOc1ccc(N2CCN(S(=O)(=O)C3(C(=O)NO)CCN(c4ccc(OCCOC)nn4)CC3)CC2)cc1 [Example 129] : 1.3 µM

Form: compound = CCCCOc1ccc(N2CCN(S(=O)(=O)C3(C(=O)NO)CCN4CCCC4C3)CC2)cc1F (stereo not drawn) [Example 126] ; Ki = > 10 µM
